Experiment: self-splicing fitness, log relative to wild type (ln ratio); higher = more splicing; Tetrahymena group I intron in knt gene, E. coli kanamycin selection, DiMSum; sequences stand for … in CUCUCU…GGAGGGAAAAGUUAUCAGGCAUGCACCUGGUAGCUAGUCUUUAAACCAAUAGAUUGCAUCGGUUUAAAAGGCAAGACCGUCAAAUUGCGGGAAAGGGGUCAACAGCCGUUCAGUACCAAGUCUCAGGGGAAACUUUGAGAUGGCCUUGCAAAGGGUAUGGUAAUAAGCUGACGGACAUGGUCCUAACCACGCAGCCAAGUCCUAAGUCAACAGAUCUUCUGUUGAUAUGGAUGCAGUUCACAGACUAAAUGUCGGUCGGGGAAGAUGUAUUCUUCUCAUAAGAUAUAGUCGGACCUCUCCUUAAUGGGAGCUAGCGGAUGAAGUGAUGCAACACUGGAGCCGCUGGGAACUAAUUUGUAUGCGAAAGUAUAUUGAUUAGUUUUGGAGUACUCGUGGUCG;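 further: selection with 25 µg/mL kanamycin versus none on LB agar overnight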
Conditions: 37 °C
Hi there, I'd appreciate the recorded self-splicing fitness (ln) for every entry that follows.
Lab note: jot down the number only; don't add units.

Report self-splicing fitness (ln) for AGGAAGCAAUAUUACGCCAA please.
-1.5

Report self-splicing fitness (ln) for CUGGAGCAAUAUUACGGGAU please.
-1.91

Report self-splicing fitness (ln) for CAAUAGCAAUAUUACGUUCG please.
0.556

Report self-splicing fitness (ln) for ACCAAGCAAUAUUACGGACG please.
-0.0232

Report self-splicing fitness (ln) for ACAUAGCAAUAUUACGUAGA please.
-1.62

Report self-splicing fitness (ln) for CGAAAGCAAUAUUACGCUGG please.
-0.903

Report self-splicing fitness (ln) for CCGUAGCAAUAUUACGCUGA please.
-2.06

Report self-splicing fitness (ln) for GGUGAGCAAUAUUACGUUGG please.
-0.982

Report self-splicing fitness (ln) for GUUAAGCAAUAUUACGCCAG please.
-2.75

Report self-splicing fitness (ln) for UCCCAGCAAUAUUACGCGGA please.
-1.12

Report self-splicing fitness (ln) for AGACAGCAAUAUUACGCUGA please.
-1.75

Report self-splicing fitness (ln) for GUUAAGCAAUAUUACGCCUA please.
-0.139

Report self-splicing fitness (ln) for CAGCAGCAAUAUUACGGGAG please.
-0.908

Report self-splicing fitness (ln) for UCAAAGCAAUAUUACGCACA please.
-0.191

Report self-splicing fitness (ln) for GCCAAGCAAUAUUACGCCUA please.
-0.61

Report self-splicing fitness (ln) for CUCCAGCAAUAUUACGUACU please.
-3.21
